Target: T1, canine PD-1 (canine)
T1 construct: Expressed full length on transiently transfected 293FS cells; also called full length canine PD-1
T1 chain: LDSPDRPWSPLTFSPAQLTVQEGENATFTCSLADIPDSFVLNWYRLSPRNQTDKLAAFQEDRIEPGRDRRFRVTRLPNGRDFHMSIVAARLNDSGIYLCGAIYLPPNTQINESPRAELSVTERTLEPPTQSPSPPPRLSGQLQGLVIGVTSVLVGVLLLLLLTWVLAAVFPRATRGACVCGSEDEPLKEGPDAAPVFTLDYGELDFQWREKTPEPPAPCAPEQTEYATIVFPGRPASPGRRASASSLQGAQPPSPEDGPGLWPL
Test: flow cytometry on 293FS cells transiently expressing full length canine PD-1
measured-metric: pKd
Conceptually, pKd converts a concentration in mol/L into minus its log10.

Ask: Any idea what its pKd is? The binder is PD1-14-Fc xEML-DANA (Fc fusion, Dimer formation is stated only in embodiment language) QVQLQQSGGGLAQAGGSLRLSCAASGRTVSIYAMGWFRQAPGKEREFVAGIGWNGGTTYYADSVEGRFTISRDHAKNTAYLQMNSLKPEDTAVYYCAAQESAAGTLGDYWGRGTQVTVKPGGGGENGRVPRPPDCPKCPAPGGPSVFIFPPKPKDTLLIARTPEVTCVVVALDPEDPEVQISWFVDGKQMQTAKTQPREEQFAGTYRVVSVLPIGHQDWLKGKQFTCKVNNKALPSPIERTISKARGQAHQPSVYVLPPSREELSKNTVSLTCLIKDFFPPDIDVEWQSNGQQEPESKYRTTPPQLDEDGSYFLYSKLSVDKSRWQRGDTFICAVMHEALHNHYTQKSLSHSPGK
Result: 8.05

Reference source for all entries: patent US20230331846A1
